All values here come from patent US20230029835A1.

# study system: T1, human TSLP recombinant protein (human, UniProt Q969D9 29-159, biotinylated in the blocking and cell-binding assays (sites not given))
# T1 construct: also called biotinylated human TSLP protein
# protocol details: SPR BIAcore T200, antibody captured on Protein A, human TSLP injected
So I've got a bunch of binders here, and I need their koff values.
Numbers only; they are read as s⁻¹.

Measured koff, 71G4 chimeric antibody (antibody, V domains shown) VH: QVQLQQSGAELVMPGASVKMSCKASGYTFTDYWMHWVKQRPGQGLEWIGTIDNSDSDTTYNQKFKGKVTLTVDESSSTAYMQLSSLTSEDSAVYYCARSVDGYLDYWGQGTTLTVSS VL: EIQMTQSPASLSASVGETVTITCRTSENIYSYLAWYQQKQGKSPQLLVYFAKTLTDGVPSRLSGSGSGTQFSLKINSLQPEDFGSYYCQHHYGTPWTFGGGTKLEIK : 3.16e-05

So for 79D6 chimeric antibody (antibody, V domains shown) VH: QVQLQQSGAELVMPGASVKMSCKASGYTFTGYWMHWVKQRPGQGLEWIGTIDNSDSDTTYNQKFKGKVTLTVDESSSTAYMQLSSLTSEDSAVYYCARSVDGYLDYWGQGTTLTVSS VL: DIQMIQSPASLSASVGETVTITCRASENIYSYLAWYQQIQGKSPQLLVYYAKTLPEGVPSRFSGSGSGTQFSLKINSLQPEDFGSYYCQHHYGTPWTFGGGTKLEIK , the logged koff turned out to be 8.77e-05

What the record says about 39G5-H8 chimeric antibody (antibody, V domains shown) VH: QVQLLQSGPQLVRPGASVKISCKASGYSFISYWIHWVKQRPGQGLEWIGIIDPSDSDTSLNQKFKDKATLTVDKSSTTAYIQLSSPTSEDSAVYYCARSLDGYYDYWGQGTTLTVSS VL: DIQMTQSPASLSASVGETVTITCRASENIYSYLAWYQQKQGKSPQLLVYNARTLPEGVPSRFSGSGSGTQFSLKINSLQPEDFGIYYCQHHYTTPWTFGGGTKLEIK : koff is 4.6e-05

Reported koff ( 80D12 chimeric antibody (antibody, V domains shown) VH: QVQLKQSGPQLVRPGASVKISCKASGYSFTSYWMHWVKQRPGQGLEWIGMIDPSDSETTLNQKFKDKATLTVDKSSTTAYMQLSSPTSEDSAVYYCARSLDGYYDYWGQGTTLTVSS VL: DVQMIQSPASLSASVGETVTITCRTSENIYSYLAWYQQKQGKSPQLLVYFAKTLTDGVPSRFSGSGSGTQFSLKINSLQPEDFGSYYCQHHYGTPWTFGGGTKLEIK ) = 2.84e-05

binder 80E11 chimeric antibody (antibody, V domains shown) VH: QVQLQQSGPQLVRPGASVKISCKASGYSFTSYWMHWVKQRPGQGLEWIGVIDPSDSETILNQKFKDKATLTVDKSSSTAYMQFSSPTSEDSAVYYCARSLDGYYDYWGQGTTLTVSS VL: DIQMTQSPASLSASVGETVTITCRAGENIYSYLAWYQQKQGKSPQLLVYNAKTLAEGVPSRFSGSASGTQFSLKINSLQPEDFGSYYCQHFWGTPWAFGGGTRLEIK , koff observed: 0.000123

Sure, the documented koff for 76A8 chimeric antibody (antibody, V domains shown) VH: QVQLQQSGPQLVRPGASVKISCKASGYSFTSYWMHWVKQRPGQGLEWIGLIDPSDSETGLNQRFKDKATLTVDNPSSTAYMQLSSPTSEDSAVYYCARSLDGYYDYWGQGTTLTVSS VL: DIQMIQSPASLSASVGETVTITCRASGNIHNYLAWYQQKQGKSPQLLVYNAKTLADGVPSRFSGSGSGTQYSLKINSLQPEDFGSYYCQHFWSTPWTFGGGTRLEIK is 8.36e-05

Note to self: koff recorded for 80B12 chimeric antibody (antibody, V domains shown) VH: QVQLQQSGPQLVRPGASVKISCKASGYSFTTYWMHWVKQRPGQGLEWIGLIDPSDGEAGLNQNFKDKATLTVDISSRTAYMQISSPTSEDSAVYFCARSLDGYYDYWGQGTTLTVSS VL: DIQMTQSPASLSASVGETVTITCRASEDIYSYLAWYQQKQGKSPQLLVYNAKTLAEGVPSRFSGSGSGTQFSLKINSLQPEDFGSYYCQHFWSTPWTFGGGTKLELK was 0.000108
